Target: HIV-1 protease (Human immunodeficiency virus type 1 group M subtype B)
Experiment: biochemical
Settings: Ki, 50 mM sodium formate pH 4.25, 2.5 mM DTT, substrate I 390 μM, 25° C.; peptides 1, 2, 4 from apparent Km vs [I], others from 1/V vs [I]
Where a SMILES comes first, the peptide text is derived from it.
parameter.measured: Ki (µM)
Numbers only, in µM.

# count of solved cases: 3
{"compound": "CC(C)C[C@H](NC(=O)[C@H](CCC(=O)O)NC(=O)[C@@H](N)CC(=O)O)C(=O)O [Peptide 7, Asp--Glu--Leu] (H-Asp-Glu-Leu-OH)", "Ki (µM)": 230}
{"compound": "CC(C)C[C@H](NC(=O)[C@H](CC(=O)O)NC(=O)[C@@H](N)CC(=O)O)C(=O)O [Peptide 9, Asp--Asp--Leu] (H-Asp-Asp-Leu-OH)", "Ki (µM)": 140}
{"compound": "CC(C)C[C@H](NC(=O)[C@H](CC(N)=O)NC(=O)[C@@H](N)CCC(=O)O)C(=O)O [Peptide 10, Glu--Asn--Leu] (H-Glu-Asn-Leu-OH)", "Ki (µM)": 3070}

For every listed record, write down its Ki.
1. N[C@@H](CC(=O)O)C(=O)N[C@@H](CCC(=O)O)C(=O)O [Peptide 14, Asp--Glu] (H-Asp-Glu-OH)
2. N=C(N)NCCC[C@H](N)C(=O)N[C@@H](CCC(=O)O)C(=O)N[C@@H](CC(=O)O)C(=O)O [Peptide 5, Arg--Glu--Asp] (H-Arg-Glu-Asp-OH)
3. CC(C)C[C@H](NC(=O)[C@H](CCC(=O)O)NC(=O)[C@@H](N)CCC(=O)O)C(=O)O [Peptide 8, Glu--Glu--Leu] (H-Glu-Glu-Leu-OH)
4. CC(C)C[C@H](NC(=O)[C@@H](N)CC(=O)O)C(=O)N[C@@H](C)C(=O)N[C@@H](Cc1ccccc1)C(=O)O [Peptide 6, Asp--Leu--Ala--Phe] (H-DLAF-OH)
5. CC(C)C[C@H](NC(=O)[C@H](CC(=O)O)NC(=O)[C@@H](N)CCC(=O)O)C(=O)N[C@@H](C)C(=O)O [Peptide 3, Glu--Asp--Leu--Ala] (H-EDLA-OH)
6. N[C@@H](CCC(=O)O)C(=O)N[C@@H](CC(=O)O)C(=O)N[C@@H](Cc1ccccc1)C(=O)O [Peptide 12, Glu--Asp--Phe] (H-Glu-Asp-Phe-OH)

Given back:
[5400, 3360, 310, 270, 160, 25]
